target: serum proteins; experiment: 90% serum, 30 kDa ultrafiltration, HPLC
PARAMETER MEASURED: Protein binding (%)
Give the number first and the unit second.

Worked examples follow.
{"BINDER": "GFCWNVCVYRNGRRVCHRRCN [SEQ ID NO: 239]", "Protein binding (%)": "65%"}
{"BINDER": "GFCWHVCVYRNGARSCYRRCN [SEQ ID NO: 213]", "Protein binding (%)": "95%"}

Could you share which Protein binding (%) value was measured for GFCWNVCVYRNGVRVCHRRCH [SEQ ID NO: 282] ?
82%
